Property: pIC50; scope: individual compounds
# Tgt: varicella zoster virus DNA polymerase (Varicella-zoster virus (strain Dumas) (HHV-3) (Human herpesvirus 3), UniProt P09252)
# Test protocol: VZV polymerase assay (AlphaLISA)
# Assay context: VZV polymerase 0.4 nM, 30 min pre-incubation, 60 minute at 37° C.
Please report pIC50 as the negative decimal logarithm of the molar concentration, giving only the number.

Solved entries (count: 6):
O=C1OC[C@@H]2C[C@@H](Oc3cc4c(=O)n(Cc5ccc(Cl)cc5)cnc4nc3-c3cnco3)CCN12 :: 8.04
COc1nc2ccc(O[C@H]3CCN4C(=O)OC[C@@H]4C3)cc2c(=O)n1Cc1ccc(Cl)cc1 :: 7.33
CCOc1ncc(-c2cc3nc(C)n(Cc4ccc(Cl)cc4)c(=O)c3cc2O[C@H]2CCN3C(=O)OC[C@@H]3C2)cn1 :: 7.82
Cc1nc2cc(-c3ccn(C(F)F)n3)c(O[C@H]3CCN4C(=O)OC[C@@H]4C3)cc2c(=O)n1Cc1ccc(Cl)cc1 :: 8.46
CC(C)(O)Cc1cc2ccn(Cc3ccc(Cl)cc3)c(=O)c2cc1O[C@H]1CCN2C(=O)OC[C@@H]2C1 :: 8.85
Cc1nc2cc(-c3nc4n(n3)CCN(C)C4)c(O[C@H]3CCN4C(=O)OC[C@@H]4C3)cc2c(=O)n1Cc1ccc(Cl)cc1 :: 7.57

[in] What does the record list as pIC50 for Cc1nc2cc(C3CC(O)C3)c(O[C@H]3CCN4C(=O)OC[C@@H]4C3)cc2c(=O)n1Cc1ccc(C#N)cc1 (stereo partly shown) ?
[out] 8.33

====

# System: CMV
# Test protocol: Viral qPCR assay, CMV
# Type: cell-based
# Assay context: infected cells, ~72 hrs, viral genome copies by qPCR normalized to PPIA; read-out: CMV Cell EC50
Measured property: pEC50
Please report pEC50 as the negative decimal logarithm of the molar concentration, giving only the number.

O=C1OC[C@@H]2C[C@@H](Oc3cc4c(=O)n(Cc5ccc(Cl)cc5)c(OC5CCC(O)CC5)nc4cc3-c3cnn(C(F)F)c3)CCN12 (single isomer, unassigned) [Example 143] :: 7.02
COc1ncc(-c2cc3nc(C)n(Cc4ccc(Cl)cc4)c(=O)c3cc2O[C@H]2CCN3C(=O)OC[C@@H]3C2)cn1 [Example 5] :: 6.97
Cc1nc2cc(-c3ccn(C(F)F)n3)c(O[C@H]3CCN4C(=O)OC[C@@H]4C3)cc2c(=O)n1Cc1ccc(Cl)cc1 [Example 13] :: 7.31
Cc1nc2cc(-c3cc4n(n3)C(C(F)(F)F)CN(C)C4)c(O[C@H]3CCN4C(=O)OC[C@@H]4C3)cc2c(=O)n1Cc1ccc(Cl)cc1 (single isomer, unassigned) [Example 152] :: 6.80
Cc1nc2cc(CC(C)(C)O)c(O[C@H]3CCN4C(=O)OC[C@@H]4C3)cc2c(=O)n1Cc1ccc(Cl)cc1 [Example 3] :: 7.43

[in] What does the record list as pEC50 for Cc1nc2cc(-c3ccn(C(F)F)n3)c(O[C@H]3CCN4C(=O)OC[C@@H]4C3)cc2c(=O)n1Cc1ccc(C#N)cc1 [Example 11] ?
[out] 7.27

[in] Another: Cc1nc2cc(C3CC(O)C3)c(O[C@H]3CCN4C(=O)OC[C@@H]4C3)cc2c(=O)n1Cc1ccc(Cl)cc1 (single isomer, unassigned) [Example 62]
[out] 7.24

====

# Tgt: varicella zoster virus DNA polymerase (Varicella-zoster virus (strain Dumas) (HHV-3) (Human herpesvirus 3), UniProt P09252)
# Test protocol: VZV polymerase assay (AlphaLISA)
# Assay context: VZV polymerase 0.4 nM, 30 min pre-incubation, 60 minute at 37° C.
Decision: IC50 beneath 3 nM gives true; IC50 meeting or exceeding 3 nM gives false.

Previously resolved entries follow.
CC(C)(O)Cc1cc(O[C@H]2CCN3C(=O)OC[C@@H]3C2)cc2c(=O)n(Cc3ccc(Cl)cc3)cnc12 :: false
Cc1nc2cc(-c3cnn(C(F)F)c3)c(O[C@H]3CCN4C(=O)OC[C@@H]4C3)cc2c(=O)n1Cc1ccc(C#N)cc1F :: false
N#Cc1ccc(Cn2c(=O)[nH]c3cc(-c4cnco4)c(O[C@H]4CCN5C(=O)OC[C@@H]5C4)cc3c2=O)cc1 :: true
Cc1nc2cc(-c3cnc(C4CC4)nc3)c(O[C@H]3CCN4C(=O)OC[C@@H]4C3)cc2c(=O)n1Cc1ccc(Cl)cc1 :: false
Cc1nc2cc(C3CC(C)(O)C3)c(O[C@H]3CCN4C(=O)OC[C@@H]4C3)cc2c(=O)n1Cc1ccc(Cl)cc1 (single isomer, unassigned) :: false

As a next step, examine the compound that follows.
[in] Please determine if O=C1OC[C@@H]2C[C@@H](Oc3ccc4ccn(Cc5ccc(Cl)cc5)c(=O)c4c3)CCN12 is below 3 nM in terms of IC50.
[out] false

====

# Tgt: Human cytomegalovirus DNA polymerase (Human cytomegalovirus (strain AD169) (HHV-5) (Human herpesvirus 5))
# Test protocol: CMV polymerase assay (AlphaLISA)
# Assay type: biochemical
# Assay context: HCMV polymerase 0.2 nM, 30 min pre-incubation, 60 minute at 37° C.
Property: pIC50; scope: individual molecules
Please report pIC50 as the negative decimal logarithm of the molar concentration, giving only the number.

Solved entries (count: 3):
Cc1nc2c(CC(C)(C)O)cc(O[C@H]3CCN4C(=O)OC[C@@H]4C3)cc2c(=O)n1Cc1ccc(Cl)cc1 :: 7.66
Cc1nc2cc(C3CC(C)(O)C3)c(O[C@H]3CCN4C(=O)OC[C@@H]4C3)cc2c(=O)n1Cc1ccc(C#N)cc1 (stereo partly shown) :: 8.19
Cc1nc2cc(-c3nc4n(n3)CCN(C)C4)c(O[C@H]3CCN4C(=O)OC[C@@H]4C3)cc2c(=O)n1Cc1ccc(Cl)cc1 :: 7.82

Now turn to the next molecule.
[in] What does the record list as pIC50 for Cc1nc2ncc(O[C@H]3CCN4C(=O)OC[C@@H]4C3)cc2c(=O)n1Cc1ccc(Cl)cc1 ?
[out] 7.46

====

# Tgt: Human cytomegalovirus DNA polymerase (Human cytomegalovirus (strain AD169) (HHV-5) (Human herpesvirus 5), UniProt P08546)
# Test protocol: CMV polymerase assay (AlphaLISA)
# Type: biochemical
# Assay context: HCMV polymerase 0.2 nM, 30 min pre-incubation, 60 minute at 37° C.
Measured property: pIC50
Please report pIC50 as the negative decimal logarithm of the molar concentration, giving only the number.

Solved entries (count: 5):
Cc1cc2ccn(Cc3ccc(Cl)cc3)c(=O)c2cc1O[C@H]1CCN2C(=O)OC[C@@H]2C1 [Example 26] :: 7.89
CCOc1ncc(-c2cc3nc(C)n(Cc4ccc(Cl)cc4)c(=O)c3cc2O[C@H]2CCN3C(=O)OC[C@@H]3C2)cn1 [Example 98] :: 7.80
Cc1nc2ccc(O[C@H]3CCN4C(=O)OC[C@@H]4C3)cc2c(=O)n1Cc1ccc(C#N)cc1 [Example 59] :: 7.51
Cc1nc2cc(-c3ccn(C(F)F)n3)c(O[C@H]3CCN4C(=O)OC[C@@H]4C3)cc2c(=O)n1Cc1ccc(Cl)cc1 [Example 13] :: 9.00
Cc1nc2cc(-c3ccn(C(F)F)n3)c(O[C@H]3CCN4C(=O)OC[C@@H]4C3)cc2c(=O)n1Cc1ccc(C#N)cc1 [Example 11] :: 9.26

[in] What does the record list as pIC50 for Cc1nc2cc(CC(C)(C)O)c(O[C@H]3CCN4C(=O)OC[C@@H]4C3)cc2c(=O)n1Cc1ccc(Cl)cc1 [Example 3] ?
[out] 8.62

[in] Another: Cc1nc2cc(C3CC(N)C3)c(O[C@H]3CCN4C(=O)OC[C@@H]4C3)cc2c(=O)n1Cc1ccc(C#N)cc1 (single isomer, unassigned) [Example 83]
[out] 7.72

[in] Another: Cc1nc2cc(-c3cn(C(F)F)cn3)c(O[C@H]3CCN4C(=O)OC[C@@H]4C3)cc2c(=O)n1Cc1ccc(C#N)cc1 [Example 80]
[out] 8.12

[in] Another: Cc1nc2cc(-c3cn[nH]c3)c(O[C@H]3CCN4C(=O)OC[C@@H]4C3)cc2c(=O)n1Cc1ccc(Cl)cc1 [Example 53]
[out] 9.12

[in] Another: O=C1OC[C@@H]2C[C@@H](Oc3cc(CO)c4ncn(Cc5ccc(Cl)cc5)c(=O)c4c3)CCN12 [Example 46]
[out] 7.62

[in] Another: O=C1OC[C@@H]2C[C@@H](Oc3ccc4nc(C5CC5)n(Cc5ccc(Cl)cc5)c(=O)c4c3)CCN12 [Example 49]
[out] 7.54

[in] Another: Cc1nc2cc(-c3cnn(C(F)F)c3)c(O[C@H]3CCN4C(=O)OC[C@@H]4C3)cc2c(=O)n1Cc1ccc(C#N)c(F)c1 [Example 66]
[out] 8.66

====

Property: pIC50; scope: individual compounds
# Tgt: Human cytomegalovirus DNA polymerase (Human cytomegalovirus (strain AD169) (HHV-5) (Human herpesvirus 5), UniProt P08546)
# Test protocol: CMV polymerase assay (AlphaLISA)
# Assay context: HCMV polymerase 0.2 nM, 30 min pre-incubation, 60 minute at 37° C.
Please report pIC50 as the negative decimal logarithm of the molar concentration, giving only the number.

Solved entries (count: 5):
COc1cnc(-c2cc3nc(C)n(Cc4ccc(Cl)cc4)c(=O)c3cc2O[C@H]2CCN3C(=O)OC[C@@H]3C2)nc1 :: 7.55
Cc1nc2cc(-c3cn4c(n3)CNCC4)c(O[C@H]3CCN4C(=O)OC[C@@H]4C3)cc2c(=O)n1Cc1ccc(C#N)cc1 :: 9.00
O=C1OC[C@@H]2C[C@@H](Oc3ccc4c(CO)cn(Cc5ccc(Cl)cc5)c(=O)c4c3)CCN12 :: 7.68
COc1nc2cc(-c3cnco3)c(O[C@H]3CCN4C(=O)OC[C@@H]4C3)cc2c(=O)n1Cc1ccc(C#N)cc1 :: 9.36
Cc1nc2cc(-c3cnco3)c(O[C@H]3CCN4C(=O)OC[C@@H]4C3)cc2c(=O)n1Cc1ccc(C#N)cc1 :: 9.09

[in] What does the record list as pIC50 for O=C1OC[C@@H]2C[C@@H](Oc3cnc4c(C5CC5)cn(Cc5ccc(Cl)cc5)c(=O)c4c3)CCN12 ?
[out] 7.16

[in] Another: CC(C)(O)Cc1cc(O[C@H]2CCN3C(=O)OC[C@@H]3C2)cc2c(=O)n(Cc3ccc(Cl)cc3)cnc12
[out] 7.38

[in] Another: C[C@@H]1CN(C)CCN1c1cc2c(=O)n(Cc3ccc(Cl)cc3)cnc2cc1-c1cnn(C(F)F)c1
[out] 6.26

[in] Another: O=C1OC[C@@H]2C[C@@H](Oc3cnc4ccn(Cc5ccc(Cl)cc5)c(=O)c4c3)CCN12
[out] 7.12

[in] Another: Cc1nc2cc(-c3cn(C(F)F)cn3)c(O[C@H]3CCN4C(=O)OC[C@@H]4C3)cc2c(=O)n1Cc1ccc(Cl)cc1
[out] 8.26

[in] Another: N#Cc1cc2ncn(Cc3ccc(Cl)cc3)c(=O)c2cc1O[C@H]1CCN2C(=O)OC[C@@H]2C1
[out] 8.57

[in] Another: CC(=O)N1CCC(Oc2ccc3ccn(Cc4ccc(Cl)cc4)c(=O)c3c2)CC1
[out] 6.41

[in] Another: Cc1nc2cc(-c3cn(C(F)F)nn3)c(O[C@H]3CCN4C(=O)OC[C@@H]4C3)cc2c(=O)n1Cc1ccc(Cl)cc1
[out] 9.33

[in] Another: CC(C)(O)Cc1nc2ncn(Cc3ccc(Cl)cc3)c(=O)c2cc1O[C@H]1CCN2C(=O)OC[C@@H]2C1
[out] 7.96

[in] Another: C[C@@H]1CN(C)CCN1c1cc(CC(C)(C)O)c2ncn(Cc3ccc(Cl)cc3)c(=O)c2c1
[out] 6.96
